Source listed as patent US20230243070A1.

# target: NYESOAApMHC (HLA-A*0201:NYESO1-9VAA), biotinylated recombinant complex (human)
# experimentSummary: SPR (ProteOn), biotinylated pMHC on NLC chip
parameter: binding result

INSERT INTO results (binder, parameter, result) VALUES
  ('DARPin® protein #33 (designed binder) MRGSHHHHHHGSDLGKKLLQAARAGQLDEVRELLKAGADVNAKDAIGQTPLHLAAFRGHLEIVEVLLKAGADVNAKDVAGWTPLHIAAAYGHLEIVEVLLKAGADVNAKDAYGQTPLHLAAFQGHLEIVEVLLKAGADVNAQDKSGKTPADLAARAGHQDIAEVLQKAA', 'binding result', 'no binding'),
  ('DARPin® protein #24 (designed binder) MRGSHHHHHHGSDLGEKLLYAAFYGQDDEVRILLTAGADVNAKDKYGLTPLHRAATHGHLEIVEVLLKAGADVNAKDEWGTTPLHIAAIFGHLEIVEVLLKAGADVNAQDEQGNTPADLAAVIGHEDIAEVLQKAA', 'binding result', 'no binding'),
  ('DARPin® protein #20 (designed binder) MRGSHHHHHHGSDLGKKLLQAARAGQLDEVRELLKAGADVNAKDQSGATPLHLAAFRGHLEIVEVLLKAGADVNAKDAAGYTPLHIAAVYGHLEIVEVLLKAGADVNAKDSAGETPLHLAAYAGHLEIVEVLLKAGADVNAQDKSGKTPADLAARAGHQDIAEVLQKAA', 'binding result', 'no binding');
